Task for the reader: assign each of the following molecules its reported half-life at 1 μM.
assay: Stability towards drug metabolizing enzymes in lung S9; format: in vitro ADME, human; conditions: human, lung S9 (from smokers); text summary of point C.2.2; read-out: half-life in lung tissue

QUERY: Consider the molecule shown here: O=C(NCCSC1CCOC1=O)c1cccc(CN2CCCC(Nc3ccc4[nH]ncc4c3)C2)c1 (centres unmarked) What is its recorded half-life at 1 μM?
RESULT: > 4 h

QUERY: And O=C(NCCSC1CCOC1=O)c1cccc(CN2CCCC(Nc3cccc4cnccc34)C2)c1 (centres unmarked) ?
RESULT: > 4 h

---

experiment: Stability in plasma, species not stated; type: in vitro ADME; details: comparison table, plasma species not given; read-out: t½ Plasma
MEASUREMENT LABEL: half-life at 1 μM

QUERY: Consider the molecule shown here: O=C(OCC1CCCO1)c1cccc(CN2CCCC(Nc3ccc4[nH]ncc4c3)C2)c1 (centres unmarked) What is its recorded half-life at 1 μM?
RESULT: < 5 min

QUERY: And COC(=O)c1cccc(NC(=O)c2cccc(CN3CCC(Nc4cccc5cnccc45)C3)c2)c1 (centres unmarked) ?
RESULT: 22 min

QUERY: And CS(=O)(=O)Nc1cccc(CN2CCCC(Nc3ccc4[nH]ncc4c3)C2)c1 (centres unmarked) [Compound 1.091, reference compound] ?
RESULT: > 120 min

QUERY: And O=C(NCCSC1CCOC1=O)c1cccc(CN2CCCC(Nc3cccc4cnccc34)C2)c1 (centres unmarked) ?
RESULT: < 5 min

QUERY: And CCOC(=O)COc1cccc(CN2CCCC(Nc3ccc4[nH]ncc4c3)C2)c1 (racemic) [Compound 1.060, reference compound] ?
RESULT: < 5 min

---

assay: Stability assay in mice plasma; format: in vitro ADME; settings: mouse, 1 μM compound, LC-MS/MS, read-out: t½ mice plasma
MEASUREMENT LABEL: half-life at 1 μM
Please state the number and follow it with the unit.

QUERY: Consider the molecule shown here: O=C(NCCSC1CCOC1=O)c1cccc(CN2CCCC(Nc3ccc4[nH]ncc4c3)C2)c1 (centres unmarked) What is its recorded half-life at 1 μM?
RESULT: 2.2 min

QUERY: And O=C(NCCSC1CCOC1=O)c1cccc(CN2CCCC(Nc3cccc4cnccc34)C2)c1 (centres unmarked) ?
RESULT: 2.5 min

---

tested on: MLC-T18/S19 phosphorylation; assay: Myosin light chain phosphorylation assay (ELISA) in A7r5 cells; format: cell-based, Rat; settings: Rattus norvegicus; MLC-T18/S19 phosphorylation, A7r5 cells, serum-free medium
MEASUREMENT LABEL: EC50

QUERY: Consider the molecule shown here: O=C(OCC1CCCO1)c1cccc(CN2CCCC(Nc3ccc4[nH]ncc4c3)C2)c1 (stereo not drawn) [Compound 14] What is its recorded EC50?
RESULT: < 300 nM

QUERY: And O=C(OCCO)c1cccc(CN2CCCC(Nc3ccc4[nH]ncc4c3)C2)c1 (stereo not drawn) [Compound 19] ?
RESULT: 300 to 1000 nM

QUERY: And O=C(OCC1CCCO1)c1cccc(CN2CCCC(Nc3cccc4cnccc34)C2)c1 (stereo not drawn) [Compound 15] ?
RESULT: 1000 to 10000 nM

QUERY: And O=C(O)c1cccc(CN2CCCC(Nc3ccc4[nH]ncc4c3)C2)c1 (stereo not drawn) [Met1] ?
RESULT: > 10000 nM

QUERY: And CCCOC(=O)c1cccc(CN2CCCC(Nc3ccc4[nH]ncc4c3)C2)c1 (stereo not drawn) [Compound 9] ?
RESULT: 300 to 1000 nM

QUERY: And COC(=O)c1cccc(CN2CCCC(Nc3ccc4[nH]ncc4c3)C2)c1 (stereo not drawn) [Compound 7] ?
RESULT: 1000 to 10000 nM
